- Test system: HEK293 cells
- METHOD NOTES: Preliminary screening as DNA vectors, GFP transfection of HEK293 cells
- Format: cell-based
- PARTICULARS: amino lipid/DOPE liposome with 75 ng plasmid DNA (psin-EGFP-IRES-Puro); number of GFP-expressing cells divided by total nuclei (Hoechst)
Rule for this label: 1 (yes) means Absolute DNA transfection efficiency in HEK293 cells is less than 6%; 0 (no) means Absolute DNA transfection efficiency in HEK293 cells is at least 6%.

Prompt line: Item `CCCCCCCCCCCCNc1nc(NCCCN(C)C)nc(SCCCCCCCCCCCC)n1` : Absolute DNA transfection efficiency in HEK293 cells beneath 6%, strictly?
Response line: 0 (no)

Prompt line: Threshold test, Absolute DNA transfection efficiency in HEK293 cells < 6%: `CCCCCCCCCCCCCNc1nc(NCCN2CCCCC2)nc(SCCCCCCCCCCC)n1`
Response line: 1 (yes)

Prompt line: Take the compound CCCCCCCCCSc1nc(NCCCCCCCC)nc(NCCN(C)C)n1 [S9N8 D1] and say whether its Absolute DNA transfection efficiency in HEK293 cells is less than 6%.
Response line: 0 (no)

Prompt line: Please state whether Absolute DNA transfection efficiency in HEK293 cells is below 6% for `CCCCCCCNc1nc(NCCCN2CCOCC2)nc(SCCCCCCC)n1`
Response line: 1 (yes)

Prompt line: Regarding CCCCCCCCCCCCCCCCCCNc1nc(NCCN(C)C)nc(SCCCCCC)n1 [S6N18 D1] , kindly confirm whether its Absolute DNA transfection efficiency in HEK293 cells is beneath 6%.
Response line: 0 (no)

Prompt line: API: query returns whether the compound falls strictly under 6% in Absolute DNA transfection efficiency in HEK293 cells. Query: `CCCCCCCNc1nc(NCC2CCN(C)CC2)nc(SCCCCCC)n1`
Response line: 1 (yes)

Prompt line: Input CCCCCCCCCCCCCCCCCCSc1nc(NCCCCCCCCCCCC)nc(NCCN(C)C)n1 [S18N12 D1] ; condition: Absolute DNA transfection efficiency in HEK293 cells strictly below 6%. Does it hold?
Response line: 1 (yes)

Prompt line: Strictly below 6%: is that where Absolute DNA transfection efficiency in HEK293 cells of CCCCCCCCCCCCCCSc1nc(NCCCCCCCCC)nc(NCCN2CCOCC2)n1 [S14N9 D2] sits?
Response line: 0 (no)

Prompt line: Check if Absolute DNA transfection efficiency in HEK293 cells falls below 6% for `CCCCCCCCCCCCSc1nc(NCCCCCCCCCCC)nc(NCC2CCN(C)CC2)n1` .
Response line: 0 (no)

Prompt line: Hello, is Absolute DNA transfection efficiency in HEK293 cells of the following compound strictly smaller than 6%? `CCCCCCCCCCCCNc1nc(NCCCN2CCN(C)CC2)nc(SCCCCCCCCCCCC)n1`
Response line: 1 (yes)

Prompt line: Is the reported Absolute DNA transfection efficiency in HEK293 cells for `CCCCCCCCCCCCNc1nc(NCCN2CCCCC2)nc(SCCCCCC)n1` strictly below 6%?
Response line: 1 (yes)

Prompt line: Regarding `CCCCCCCCCCCNc1nc(NCCCN(C)C)nc(SCCCCCCC)n1` , kindly confirm whether its Absolute DNA transfection efficiency in HEK293 cells is beneath 6%.
Response line: 0 (no)

Prompt line: Criterion: Absolute DNA transfection efficiency in HEK293 cells strictly below 6%. Is it met by `CCCCCCCCCCCNc1nc(NCC2CCN(C)CC2)nc(SCCCCCCC)n1` ?
Response line: 0 (no)

Prompt line: In plain terms, does `CCCCCCCCCCSc1nc(NCCCCCCCC)nc(NCCCN2CCN(C)CC2)n1` come in under 6% for Absolute DNA transfection efficiency in HEK293 cells?
Response line: 1 (yes)

Prompt line: Criterion: Absolute DNA transfection efficiency in HEK293 cells strictly below 6%. Is it met by `CCCCCCCSc1nc(NCCCCCC)nc(NCCN2CCN(C)CC2)n1` ?
Response line: 0 (no)

Prompt line: Absolute DNA transfection efficiency in HEK293 cells strictly < 6% for this compound? `CCCCCCCCCCCCCCCCCCSc1nc(NCCCCCC)nc(NCCCN2CCOCC2)n1`
Response line: 1 (yes)

Prompt line: Take the compound CCCCCCCCCSc1nc(NCCCCCCC)nc(NCCN2CCOCC2)n1 [S9N7 D2] and say whether its Absolute DNA transfection efficiency in HEK293 cells is less than 6%.
Response line: 1 (yes)

Prompt line: # TODO verify Absolute DNA transfection efficiency in HEK293 cells < 6% strictly for this compound: `CCCCCCCCCSc1nc(NCCCCCC)nc(NCCN2CCN(C)CC2)n1`
Response line: 0 (no)

Prompt line: Does this compound meet the criterion Absolute DNA transfection efficiency in HEK293 cells < 6%? `CCCCCCCCCCCSc1nc(NCCCN2CCOCC2)nc(SCCCCCC)n1`
Response line: 1 (yes)

Prompt line: is_below(Absolute DNA transfection efficiency in HEK293 cells, 6%) for `CCCCCCCCCCCCSc1nc(NCC2CCN(C)CC2)nc(N(CCCCCCCCCCCC)CCCCCCCCCCCC)n1` ?
Response line: 1 (yes)

Prompt line: Hi there! Is Absolute DNA transfection efficiency in HEK293 cells for `CCCCCCCCCCSc1nc(NCCCN2CCOCC2)nc(SCCCCCCC)n1` below 6%, do you know?
Response line: 0 (no)

Prompt line: Regarding `CCCCCCCCCCCCCCCCCCSc1nc(NCCCN(C)C)nc(SCCCCCC)n1` , kindly confirm whether its Absolute DNA transfection efficiency in HEK293 cells is beneath 6%.
Response line: 1 (yes)

Prompt line: Does `CCCCCCCCCCCCCCCCCCNc1nc(NCCN2CCCC2)nc(SCCCCCCCCCCCC)n1` have Absolute DNA transfection efficiency in HEK293 cells strictly under 6%?
Response line: 1 (yes)

Prompt line: Record `CCCCCCCCNc1nc(NCCCN2CCOCC2)nc(SCCCCCC)n1` : is its Absolute DNA transfection efficiency in HEK293 cells strictly below 6%?
Response line: 1 (yes)

Prompt line: Please check: Absolute DNA transfection efficiency in HEK293 cells for CCCCCCCCCCCCCCCCNc1nc(NCCN(C)C)nc(SCCCCCCCCC)n1 [S9N16 D1] , strictly under 6% or not?
Response line: 0 (no)

Prompt line: Below 6% on Absolute DNA transfection efficiency in HEK293 cells? Entry `CCCCCCCCCCSc1nc(NCCCN(C)C)nc(SCCCCCCC)n1`
Response line: 1 (yes)

Prompt line: For `CCCCCCCCCCCCCCCCSc1nc(NCCCCCCCC)nc(NCCCN2CCN(C)CC2)n1` , is the recorded Absolute DNA transfection efficiency in HEK293 cells below the cut-off of 6%?
Response line: 0 (no)

Prompt line: I wonder whether `CCCCCCCCCCCSc1nc(NCCCN2CCOCC2)nc(SCCCCCCC)n1` has Absolute DNA transfection efficiency in HEK293 cells below 6%. Can you tell?
Response line: 0 (no)

Prompt line: Please determine if CCCCCCCCCCCCN(CCCCCCCCCCCC)c1nc(NCCN(C)C)nc(SCCCCCC)n1 [S6^2N12 D1] is below 6% in terms of Absolute DNA transfection efficiency in HEK293 cells.
Response line: 1 (yes)

Prompt line: Consider the compound CCCCCCCCCCCCCCCCSc1nc(NCCCCCCCCCCCCC)nc(NCCN(C)C)n1 [S16N13 D1] . Is its Absolute DNA transfection efficiency in HEK293 cells strictly less than 6%?
Response line: 1 (yes)

Prompt line: Dear colleague, could you confirm whether Absolute DNA transfection efficiency in HEK293 cells of `CCCCCCCCCCCCCCCCCCNc1nc(NCCCN2CCOCC2)nc(SCCCCCCCCCCCC)n1` falls below 6%? Thanks.
Response line: 1 (yes)

Prompt line: hey, is Absolute DNA transfection efficiency in HEK293 cells for `CCCCCCCCCCCCSc1nc(NCCCN(C)C)nc(N(CCCCCCCCCCCC)CCCCCCCCCCCC)n1` lower than 6% or not?
Response line: 1 (yes)

Prompt line: For this compound, is Absolute DNA transfection efficiency in HEK293 cells lower than 6%? `CCCCCCCCCCCCSc1nc(NCCN2CCCC2)nc(SCCCCCCCC)n1`
Response line: 0 (no)

Prompt line: Hi there! Is Absolute DNA transfection efficiency in HEK293 cells for `CCCCCCCCCCCCCCCNc1nc(NCCCN(C)C)nc(SCCCCCCCCCCCC)n1` below 6%, do you know?
Response line: 1 (yes)

Prompt line: Lab log: compare recorded Absolute DNA transfection efficiency in HEK293 cells with 6%; is it strictly lower for `CCCCCCCCCCCCCCCCCCNc1nc(NCCCN(C)C)nc(SCCCCCCCCCCCCCC)n1` ?
Response line: 1 (yes)

Prompt line: Lab note: Absolute DNA transfection efficiency in HEK293 cells threshold 6%. Does this compound come in strictly under it? `CCCCCCCCCCCSc1nc(NCCCCCCCCC)nc(NCCN2CCN(C)CC2)n1`
Response line: 0 (no)
